The reported numbers originate from patent US10000469B2.

Experiment: HS-72 PK in plasma, kidney and liver
Assay type: in vivo, mice
Conditions: 24 hours, IP 20 mg/Kg, n=3, SEM
measurement name: liver concentration (µmol/g)

{"molecule": "CCCn1c(NC(=O)[C@H]2CCCN(c3cnccn3)C2)nc2ccccc21 [HS-72]", "measurement name": "liver concentration", "measurement": 0.51}

====

Experiment: HS-72 PK in plasma, kidney and liver
Type: in vivo, mice
Conditions: mouse, plasma; 24 hours post IP injection, 20 mg/Kg; read-out: plasma concentration, trace amounts
measurement name: concentration at 24 hours

{"molecule smiles": "CCCn1c(NC(=O)[C@H]2CCCN(c3cnccn3)C2)nc2ccccc21", "measurement": "< 10 µM"}
